Tested on: Schoenoplectiella juncoides
PROTOCOL TEXT: Pre-emergence herbicidal activity against Schoenoplectiella juncoides at 2000 g a.i/ha measured after 14 days
Type: functional, organism-based
Activity calls are given as the source filed them. The calls are words filed in the database; no cut-off is given here.
Answer with one of the outcomes active, inactive

Look over these answered cases.
molecule=CCCN(CC)C(=O)c1cn(C)nc1OCc1cc(Br)cc(Br)c1 class_label=inactive
molecule=C#CCOc1nn(C)cc1C(=O)N(CC)CCC class_label=inactive
molecule=CCCN(CC)C(=O)c1cn(C)nc1OCc1ccc(SC)cc1 class_label=inactive

Continue with the next molecule.
Inquiry: // return assay outcome for CCCN(CC)C(=O)c1cn(C)nc1OC(C)c1cccc(Br)c1 (configuration not stated)
Reply text: inactive

###

Test system: Schoenoplectiella juncoides
PROTOCOL TEXT: Pre-emergence herbicidal activity against Schoenoplectiella juncoides at 2000 g a.i/ha measured after 14 days
Format: functional, organism-based
Calls of active or inactive are those of the source. The rule behind the calls is not given here.
Hello, when you answer, please use one of the following outcomes: active, inactive

Look over these answered cases.
query_smiles=CCCN(CC)C(=O)c1cn(C)nc1OCc1cccc(C#N)c1 class_label=inactive
query_smiles=CCCN(CC)C(=O)c1cn(C)nc1OC class_label=inactive
query_smiles=CCCN(CC)C(=O)c1cn(C)nc1OCc1ccc(C(F)(F)F)cc1 class_label=active
query_smiles=CCCN(CC)C(=O)c1cn(C)nc1OCc1cccc(Br)c1 class_label=active
query_smiles=CCCN(CC)C(=O)c1cn(C)nc1OCc1ccc(C)cc1 class_label=inactive

Inquiry: // outcome(item) with item = CCCN(CC)C(=O)c1cn(C)nc1OCc1ccccc1C(F)(F)F
Reply text: inactive

Inquiry: Outcome logged for CCCN(CC)C(=O)c1cn(C)nc1OCc1ccccc1 in this assay:
Reply text: inactive

Inquiry: # lookup: test call for CCCN(CC)C(=O)c1cn(C)nc1OCc1cccc(F)c1
Reply text: active
